Target: JM-KD^Y657/658F (UniProt P21802-3 414-764, Y657/658F)
parameter-measured: Kd (µM)
Write the value in µM as a bare number.

Kd in this record for CT^C1, untagged C-terminal tail of FGFR2 (the last 58 residues) (domain or fragment, Atto488 dye in the MST assays where CT is the labelled partner) TTNEEYLDLSQPLEQYSPSYPDTRSSCSSGDDSVFSPDPMPYEPCLPQYPHINGSVKT : 5.65

Every entry's value here was drawn from paper doi:10.1101/2020.10.01.322123.
